Tested on: luminescence output of luciferase
EXPERIMENT DESCRIPTION: Compounds and reagents that inhibit or interfere with the ID-Oligo luminescence methods
Assay type: biochemical
METRIC: inhibit or interfere with the methods described herein

Looking for the measured inhibit or interfere with the methods described herein of O=C([O-])CC(O)(CC(=O)[O-])C(=O)[O-].[Na+].[Na+].[Na+] [Na-citrate] , can you help?
inhibit or interfere

Request: Cc1cc(C(C)(C)C)c(O)c(C(C)(C)C)c1 [BHT, butylated hydroxytoluene]
inhibit or interfere

Request: O=C(O)CN(CCOCCOCCN(CC(=O)O)CC(=O)O)CC(=O)O
inhibit or interfere

Request: CCn1c(=NN=c2sc3cc(S(=O)(=O)O)ccc3n2CC)sc2cc(S(=O)(=O)O)ccc21
inhibit or interfere

Request: O=C(O)CN(CCN(CC(=O)O)CC(=O)O)CC(=O)O
inhibit or interfere

Now for a further compound.
Looking for the measured inhibit or interfere with the methods described herein of [N-]=[N+]=[N-].[Na+] [Na-azide] , can you help?
inhibit or interfere
